study system: UniProtKB P03951
Sequence (P03951 388-625): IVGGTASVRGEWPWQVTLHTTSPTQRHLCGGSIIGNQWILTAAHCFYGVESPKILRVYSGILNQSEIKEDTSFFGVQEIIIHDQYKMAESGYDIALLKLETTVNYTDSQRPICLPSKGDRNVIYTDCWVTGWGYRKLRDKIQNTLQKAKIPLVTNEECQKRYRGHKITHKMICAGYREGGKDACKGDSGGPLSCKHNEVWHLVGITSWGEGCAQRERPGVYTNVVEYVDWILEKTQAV
Sequence (P03951 19-387 partner): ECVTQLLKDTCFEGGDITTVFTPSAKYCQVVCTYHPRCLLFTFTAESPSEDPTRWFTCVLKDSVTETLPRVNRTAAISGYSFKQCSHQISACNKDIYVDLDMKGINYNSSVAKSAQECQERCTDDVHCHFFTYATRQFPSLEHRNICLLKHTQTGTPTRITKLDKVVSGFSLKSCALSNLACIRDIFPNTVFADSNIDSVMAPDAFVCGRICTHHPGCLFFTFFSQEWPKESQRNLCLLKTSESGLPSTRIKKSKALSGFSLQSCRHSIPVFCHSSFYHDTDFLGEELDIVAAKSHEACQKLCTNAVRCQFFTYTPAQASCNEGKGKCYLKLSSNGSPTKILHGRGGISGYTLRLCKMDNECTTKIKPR
assay summary: Factor XIa Assay
Type: biochemical
condition summary: read-out: FXIa Ki
# Lookup of reported Ki keyed by entry
Give the number; µM is assumed, so skip it.

Previously resolved entries follow.
{"columns": ["compound", "Ki, µM"],
 "data": [
  ["O=C1Nc2ccc(Cl)c(F)c2[C@@]2(CCCN(C(=O)[C@H](CC3CC3)NC(=O)c3ccc4[nH]c(=O)cc(O)c4c3)C2)O1", 0.00022],
  ["CNc1cc(C(=O)N[C@@H](Cc2ccccc2)C(=O)N2CCC[C@@]3(C2)OC(=O)Nc2ccc(Cl)cc23)ccn1", 0.0145],
  ["O=C1Nc2ccc(Cl)cc2C2(CCN(C(=O)[C@H](Cc3ccccc3)NC(=O)c3ccc4ncc(O)nc4c3)C2)O1 (stereo partly shown)", 0.512],
  ["COC(=O)Nc1ccc(C(N[C@@H](Cc2ccccc2)C(=O)N2CCC3(C2)OC(=O)Nc2ccc(Cl)cc23)C(F)(F)F)cc1 (stereo partly shown)", 8.75],
  ["CC(=O)Nc1ccc(C(=O)N[C@@H](Cc2ccccc2)C(=O)N2CCC[C@@]3(C2)OC(=O)Nc2ccc(Cl)c(F)c23)cc1", 0.00428]
]}

Look at this compound and give its reported Ki. O=C1Nc2ccc(Cl)cc2C2(CCN(C(=O)[C@H](Cc3ccccc3)NC(=O)c3ccc4cc(C(=O)O)ccc4c3)C2)O1 (stereo partly shown)
0.298

Entry Cc1nc(N)sc1C(=O)N[C@@H](Cc1ccccc1)C(=O)N1CCC2(C1)OC(=O)Nc1ccc(Cl)cc12 (stereo partly shown) has what Ki?
0.508
